assay: Cytotoxicity against HEK293 cells assessed as inhibition of cell viability at 25 ug/ml after 48 hrs by MTT assay relative to control; format: cell-based; conditions: human, read-out: INH
OBSERVABLE: cytotoxicity at 48 h, 25 ug/ml (%)
Number in %, nothing else.

Here are 8 compounds together with their reported answers.
smiles_input=CC(C)(C)c1ccc(C(=O)NNC(=O)[C@H](Cc2ccc(O)cc2)NC(=O)c2ccc(Br)o2)cc1 observable="cytotoxicity at 48 h, 25 ug/ml" reading=26.6
smiles_input=COc1ccc(C(=O)NNC(=O)[C@H](Cc2ccc(O)cc2)NC(=O)c2ccc(-c3ccc(F)cc3)s2)cc1 observable="cytotoxicity at 48 h, 25 ug/ml" reading=23.6
smiles_input=COc1ccc(C(=O)NNC(=O)[C@H](Cc2ccc(O)cc2)NC(=O)c2ccc(-c3ccc(OC)cc3)o2)cc1 observable="cytotoxicity at 48 h, 25 ug/ml" reading=29.9
smiles_input=CSc1ccc(-c2ccc(C(=O)NNC(=O)c3ccc(F)cc3)o2)cc1 observable="cytotoxicity at 48 h, 25 ug/ml" reading=27
smiles_input=O=C(NNC(=O)[C@H](Cc1ccc(O)cc1)NC(=O)c1ccc(-c2ccc(F)cc2)s1)c1ccc(Cl)cc1 observable="cytotoxicity at 48 h, 25 ug/ml" reading=17
smiles_input=O=C(NNC(=O)[C@H](Cc1ccc(O)cc1)NC(=O)c1ccc(-c2ccc(F)cc2)s1)c1ccc(F)cc1 observable="cytotoxicity at 48 h, 25 ug/ml" reading=22.9
smiles_input=COc1ccc(C(=O)NNC(=O)c2ccc(-c3ccc(SC)cc3)o2)cc1 observable="cytotoxicity at 48 h, 25 ug/ml" reading=17.4
smiles_input=O=C(NNC(=O)[C@H](Cc1ccc(O)cc1)NC(=O)c1ccc(-c2ccccc2)o1)c1ccc(Br)cc1 observable="cytotoxicity at 48 h, 25 ug/ml" reading=16.3

Entry `CSc1ccc(-c2ccc(C(=O)NNC(=O)c3ccccc3F)o2)cc1` : reported cytotoxicity at 48 h, 25 ug/ml = ?
16.9

Now try `CSc1ccc(-c2ccc(C(=O)NNC(=O)c3ccco3)o2)cc1` .
11.6

Also check `Cc1ccc(C(=O)NNC(=O)c2ccc(-c3ccccc3S(C)(=O)=O)o2)cc1`
22.9

// same read-out, input: `CSc1ccc(-c2ccc(C(=O)NNC(=O)c3ccc(C(C)(C)C)cc3)o2)cc1`
10.6

# iterate: `CC(C)(C)c1ccc(C(=O)NNC(=O)[C@H](Cc2ccc(O)cc2)NC(=O)c2ccc(-c3ccccc3)o2)cc1`
18.7

# repeat for `CSc1ccc(-c2ccc(C(=O)NNC(=O)c3ccc(O)cc3)o2)cc1`
17.4
